# Test system: Leishmania tropica
# MEASUREMENT PROTOCOL: Percentage of growth inhibition of multidrug resistance Leishmania tropica Lines at 1 uM
# Assay type: functional
Respond with YES for inhibition at 1 µM values of 20% and above, NO for values below.

API: above_or_equal(metric=inhibition at 1 µM, cutoff=20%) for item CC(=O)O[C@H]1[C@@H](OC(=O)c2ccccc2)C[C@](C)(O)C23OC(C)(C)C(C[C@H](OC(=O)c4ccco4)[C@]12C)[C@H]3OC(=O)c1ccco1 (some centres undefined)
NO

API: above_or_equal(metric=inhibition at 1 µM, cutoff=20%) for item CC(=O)O[C@H]1[C@@H](OC(=O)c2ccco2)C[C@](C)(O)C23OC(C)(C)C(C[C@H](OC(=O)c4ccco4)[C@]12C)[C@H]3OC(=O)c1ccco1 (some centres undefined)
NO

API: above_or_equal(metric=inhibition at 1 µM, cutoff=20%) for item CC(=O)OC[C@]12[C@@H](OC(=O)c3ccco3)CC3[C@@H](OC(=O)c4ccco4)C1(OC3(C)C)[C@@](C)(O)C[C@H](OC(C)=O)[C@@H]2OC(C)=O (some centres undefined)
YES

API: above_or_equal(metric=inhibition at 1 µM, cutoff=20%) for item CC(=O)O[C@H]1C[C@](C)(O)C23OC(C)(C)C(C[C@H](OC(=O)c4ccco4)[C@]2(C)[C@H]1OC(C)=O)[C@H]3OC(=O)c1ccco1 (some centres undefined)
YES

API: above_or_equal(metric=inhibition at 1 µM, cutoff=20%) for item CC(=O)O[C@H]1[C@@H](OC(=O)c2ccccc2)C[C@](C)(O)C23OC(C)(C)C(C[C@H](OC(=O)c4ccco4)[C@]12C)[C@H]3OC(=O)c1ccc([N+](=O)[O-])cc1 (some centres undefined)
NO

API: above_or_equal(metric=inhibition at 1 µM, cutoff=20%) for item COc1ccc(C(=O)O[C@@H]2C3C[C@H](OC(=O)c4ccco4)[C@]4(C)[C@@H](OC(C)=O)[C@@H](OC(C)=O)C[C@](C)(O)C24OC3(C)C)cc1 (some centres undefined)
NO

API: above_or_equal(metric=inhibition at 1 µM, cutoff=20%) for item CC(=O)O[C@H]1C[C@](C)(O)C23OC(C)(C)C(C[C@H](OC(=O)c4ccco4)[C@]2(C)[C@H]1OC(C)=O)[C@H]3OC(=O)C(C)(C)C (some centres undefined)
NO

API: above_or_equal(metric=inhibition at 1 µM, cutoff=20%) for item CC(=O)OC[C@]12[C@@H](OC(=O)c3ccccc3)CC3[C@@H](OC(=O)c4ccccc4)C1(OC3(C)C)[C@@](C)(O)C[C@H](OC(C)=O)[C@@H]2OC(C)=O (some centres undefined)
NO

# credit: ChEMBL document CHEMBL1148393
